target: PKC-βI (Homo sapiens); assay: ELISA-based competitive binding assay with purified PKC isoform; parameters: key: —: no detectable affinity; Low to very low affinity at 10X or 20X or both PRE concentrations in at least one cell line in the cell extract assay; Low affinity in purified isoform assay.; Moderate affinity at 10X or 20X or both PRE concentrations in at least one cell line in the cell extract assay.; High affinity at 10X or 20X or both PRE concentrations in at least one cell line in the cell extract assay; High affinity in purified isoform assay; conditions: Purified isoform; Table 20
Sequence (P05771 whole entry, canonical isoform): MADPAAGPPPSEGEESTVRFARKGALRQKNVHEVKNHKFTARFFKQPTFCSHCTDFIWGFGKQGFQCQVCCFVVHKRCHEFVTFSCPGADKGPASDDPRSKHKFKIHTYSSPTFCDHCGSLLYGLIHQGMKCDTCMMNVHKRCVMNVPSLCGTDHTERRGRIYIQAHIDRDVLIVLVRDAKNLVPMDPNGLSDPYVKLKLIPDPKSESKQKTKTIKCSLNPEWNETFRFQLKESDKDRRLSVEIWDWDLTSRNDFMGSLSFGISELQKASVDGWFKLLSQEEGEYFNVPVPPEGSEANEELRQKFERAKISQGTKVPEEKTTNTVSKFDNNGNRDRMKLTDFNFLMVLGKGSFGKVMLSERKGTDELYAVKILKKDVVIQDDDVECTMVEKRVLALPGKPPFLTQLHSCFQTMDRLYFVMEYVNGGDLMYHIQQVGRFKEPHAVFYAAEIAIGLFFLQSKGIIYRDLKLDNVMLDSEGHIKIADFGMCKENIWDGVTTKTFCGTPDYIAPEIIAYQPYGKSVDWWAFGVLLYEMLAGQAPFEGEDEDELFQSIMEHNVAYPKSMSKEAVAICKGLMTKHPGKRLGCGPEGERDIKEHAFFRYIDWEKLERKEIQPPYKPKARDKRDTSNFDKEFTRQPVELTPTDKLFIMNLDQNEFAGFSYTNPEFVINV

SUBSTANCE | Affinity for PKC isoform βI
Ac-RDAQNLI-NH2 [PRE 13] | —
Ac-AKGIQEVKGGKDAQNLIGISI-NH2 [PRE 5] | —
Ac-KDANQLIGISI-NH2 [PRE 6] | L
Ac-KDAQNLIGISI-NH2 [PRE 4, Ac-KDAQNLIGISI-NH2] | L
